- Tested target: Cbl-b (Homo sapiens, UniProt Q13191)
- Sequence (Q13191 36-427): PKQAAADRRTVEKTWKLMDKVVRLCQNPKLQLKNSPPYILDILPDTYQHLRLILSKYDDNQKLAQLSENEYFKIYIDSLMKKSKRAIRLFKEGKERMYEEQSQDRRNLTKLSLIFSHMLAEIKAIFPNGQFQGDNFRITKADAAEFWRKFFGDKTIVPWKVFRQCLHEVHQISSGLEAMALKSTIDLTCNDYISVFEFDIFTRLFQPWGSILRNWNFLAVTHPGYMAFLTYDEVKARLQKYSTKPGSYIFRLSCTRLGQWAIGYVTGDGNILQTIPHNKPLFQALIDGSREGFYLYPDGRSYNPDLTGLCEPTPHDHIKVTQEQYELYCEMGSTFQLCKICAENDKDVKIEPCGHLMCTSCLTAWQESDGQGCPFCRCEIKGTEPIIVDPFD
- Assay overview: Cbl-b activity assay (Cbl-b inhibition assay), TR-FRET of Cbl-b interaction with UbcH5B-Ub
- Type: biochemical
- Condition details: assay buffer with 100 mM NaCl, 60 nM Src kinase; read-out: Cbl-b activity IC50
Reported IC50 values are given for each entry in this list.

Kindly note the recorded IC50 for Cn1cnnc1CC1(c2cccc(N3Cc4c(cc(CN5CCc6ccccc6C5)cc4C(F)(F)F)C3=O)c2)COC1 , which is < 100 nM

Kindly note the recorded IC50 for Cn1cnnc1CC1(c2cccc(N3Cc4c(cc(CN5CCOC(CC(F)(F)F)C5)cc4C(F)(F)F)C3=O)c2)COC1 (centres unmarked) , which is < 100 nM

Kindly note the recorded IC50 for Cc1ccc(C(=O)Nc2cccc([C@H](C)Cc3nnc[nH]3)c2)nc1C1CC1 , which is 301 to 1000 nM

Kindly note the recorded IC50 for Cn1cnnc1CC1(c2cccc(N3Cc4c(cc(CN5CC[C@@H](c6ccccc6)C5)cc4C(F)(F)F)C3=O)c2)COC1 [Example 662b] , which is < 100 nM

Kindly note the recorded IC50 for C[C@H](c1cc2c(c(C(F)(F)F)c1)CN(c1cccc(C3(Cc4nncn4C)COC3)c1)C2=O)N1CC[C@H](F)C1 , which is < 100 nM

====

- Test system: T-cell
- Assay overview: IL-2 secretion from T-cells stimulated with anti-CD3 antibody alone (Biological Example 2)
- Format: cell-based, human
- Condition details: T-cell; fold change over baseline; 8 μM Cbl-b inhibitor; primary human total T-cells; read-out: IL-2 secretion Anti-CD3 stimulation
- Description: Methods for experimentally determining increased T-cell activation, increased T-cell proliferation, decreased T-cell exhaustion, and/or decreased T-cell tolerance are well known in the art. Modulation of activity of an immune cell, such as a T-cell, a B cell or a NK cell can be measured by determining a baseline value for a parameter of interest (e.g., cytokine secretion). […] A positive response for immune cell activation can then be determined by the obtained reference value. […]
Counter-ions that a name gives are not always drawn.
Endpoint: fold induction at 8 µM

{"Molecule": "C[C@H](Sc1nncn1C)c1cccc(NC(=O)c2ccnc(C(F)(F)F)n2)c1 [Compound 75]", "fold induction at 8 µM": "0.051 to 0.1"}
{"Molecule": "C[C@H](Cc1nncn1C)c1cccc(NC(=O)c2cccc(C(F)(F)F)n2)c1 [Compound 183a]", "fold induction at 8 µM": "> 0.201"}
{"Molecule": "Cc1ccnn1CC(C)c1cccc(NC(=O)c2cccc(C(F)(F)F)n2)c1 (centres unmarked) [Compound 215]", "fold induction at 8 µM": "0.051 to 0.1"}
{"Molecule": "C[C@H](Cc1nncn1C)c1cccc(NC(=O)c2nc3c(C4CC4)cccc3[nH]2)c1 [Compound 319]", "fold induction at 8 µM": "> 0.201"}
{"Molecule": "C[C@H](Cc1nncn1C)c1cc(N[C@@H]2CCOC2)nc(N2Cc3c(cccc3C(F)(F)F)C2=O)c1 (stereo in doubt) [Compound 362]", "fold induction at 8 µM": "0.101 to 0.15"}
{"Molecule": "C[C@H](Cc1nncn1C)c1cccc(NC(=O)c2cc(C(=O)N3C[C@@H](O)[C@H](F)C3)ccn2)c1 [Compound 240]", "fold induction at 8 µM": "> 0.201"}
{"Molecule": "Cc1cc(C(=O)Nc2cccc([C@H](C)Cc3nncn3C)c2)nc(C(F)(F)F)n1 [Compound 194]", "fold induction at 8 µM": "> 0.201"}
{"Molecule": "C[C@H](Sc1nncn1C)c1cccc(NC(=O)c2cc3cc(OCC(=O)NCCN)ccc3cn2)c1 [Compound 311, hydrochloride]", "fold induction at 8 µM": "< 0.05"}
{"Molecule": "C[C@H](Cc1nncn1C)c1cccc(NC(=O)c2cc(C(=O)N3CC[C@H](O)C3)cc(C(F)(F)F)n2)c1 [Compound 220]", "fold induction at 8 µM": "> 0.201"}
{"Molecule": "Cc1nc(C(=O)Nc2cccc([C@H](C)Sc3nncn3C)c2)ccc1Cl [Compound 39]", "fold induction at 8 µM": "0.051 to 0.1"}

Kindly note the recorded fold induction at 8 µM for Cc1ccc(C(=O)Nc2cccc(C(C)C(F)(F)c3nncn3C)c2)nc1C1CC1 (centres unmarked) [Compound 286] , which is 0.101 to 0.15
